Just for reference, the supplement of paper PMC10567573 is where these values come from.

B1: TRIM14 (parent)
chain: YARTPTLDPDTMHARLRLSADRLT

Variants of: B1
Experiment: protein stability index of a GFP-peptide fusion (GPS, HEK-293T) (PSI 1-6); higher = more stable;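 further: lentivirally expressed fusions sorted by FACS into six bins by GFP to DsRed ratio, PSI derived from sequencing read proportions per bin multiplied by bin number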
Details: c terminus: a fixed tail appended
Documented protein stability index across a set of variants
Just the number.

Completed entries (count: 4):
INSERT INTO results (mutantdesignation, observedresult) VALUES
  ('D21P', 2.06),
  ('M12H', 3.13),
  ('T24Q', 2.67),
  ('H13T', 2.77);

Query block: Looking for the measured protein stability index of T4I , can you help?
Result block: 3.04

Query block: Check T4E too.
Result block: 4.06

Query block: Check A2R too.
Result block: 2.85

Query block: Check L7M too.
Result block: 2.81

Query block: Check R17A too.
Result block: 2.89
